Listed below: activity at 0.0025 µM values for each entry.
# tested_on: M. musculus (heart) complex I (Mus musculus, UniProt P03888+Q91WD5+Q9DC70)
# Sequence (Q91WD5 34-463): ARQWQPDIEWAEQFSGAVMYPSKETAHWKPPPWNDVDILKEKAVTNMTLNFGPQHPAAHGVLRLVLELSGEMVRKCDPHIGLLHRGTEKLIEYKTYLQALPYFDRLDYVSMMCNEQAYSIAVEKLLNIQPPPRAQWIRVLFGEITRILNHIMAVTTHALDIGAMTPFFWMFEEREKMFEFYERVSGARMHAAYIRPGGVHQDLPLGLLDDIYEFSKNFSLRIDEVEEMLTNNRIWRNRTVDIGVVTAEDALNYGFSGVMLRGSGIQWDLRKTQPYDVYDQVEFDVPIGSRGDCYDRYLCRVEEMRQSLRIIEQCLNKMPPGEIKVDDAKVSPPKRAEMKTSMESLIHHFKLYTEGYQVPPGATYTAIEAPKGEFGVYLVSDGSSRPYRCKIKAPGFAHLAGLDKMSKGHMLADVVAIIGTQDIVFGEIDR
# Sequence (Q9DC70 36-224): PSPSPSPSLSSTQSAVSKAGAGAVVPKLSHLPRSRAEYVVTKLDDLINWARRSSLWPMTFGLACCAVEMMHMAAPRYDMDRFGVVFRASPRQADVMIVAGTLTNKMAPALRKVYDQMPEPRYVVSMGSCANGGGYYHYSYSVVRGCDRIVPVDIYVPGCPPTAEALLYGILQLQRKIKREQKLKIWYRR
# Sequence (P03888 whole entry): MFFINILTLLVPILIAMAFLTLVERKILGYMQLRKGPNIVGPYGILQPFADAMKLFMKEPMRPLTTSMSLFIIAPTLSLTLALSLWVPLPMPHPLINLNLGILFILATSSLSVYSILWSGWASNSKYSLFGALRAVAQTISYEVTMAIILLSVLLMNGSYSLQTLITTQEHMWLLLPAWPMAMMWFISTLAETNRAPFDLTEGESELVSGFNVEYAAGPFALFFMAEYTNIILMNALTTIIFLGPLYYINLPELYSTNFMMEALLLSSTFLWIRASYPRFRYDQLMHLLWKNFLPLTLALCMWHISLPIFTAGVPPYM
# assay_notes: biochemical
# Type: biochemical
# assay_conditions: M. musculus; dose 0.0025 µM; individual replicates (Rep); read-out: Complex I activity, dose-response data
API: value field is a number in %; no unit string.

Recorded activity at 0.0025 µM, per entry:
{"compound": "COc1cc2c(cc1OC)C(/C=C/c1ccc(N(C)C)cc1)=NCC2", "numeric_readout": 103}
{"compound": "COc1cc2c(cc1OC)C(c1ccc(-c3ccc(Cl)c(Cl)c3)o1)=NCC2", "numeric_readout": 103}
{"compound": "COc1cc2c(cc1OC)C(C(C)c1ccc(CC(C)C)cc1)=NCC2 (stereo not shown)", "numeric_readout": 111}

Now take the following compound into account.
Please give the documented activity at 0.0025 µM of CC(C)Cc1ccc(C(C)c2nc3ccccc3n2C)cc1 (stereo not shown) 103

====

# Tested on: L1 wild-type C. elegans
# assay_notes: whole plant or invertebrate
# assay_conditions: Caenorhabditis elegans, 15 h, read-out: C. elegans KCN Survival Assay LC50
Recorded LC50 determines the group label, using lower segment (below 4 µM), middle segment (4 µM to below 20 µM), upper segment (20 µM or more)

{"compound": "O=C(Nc1ccc([N+](=O)[O-])cc1Cl)c1cc(Cl)ccc1O [Niclosamide]", "assigned_class": "lower segment"}

For the next question, use this compound.
Given Cc1nc2ccccc2n1Cc1ccc(Cl)cc1 [STK697993] , name the class its LC50 places it in. middle segment

====

Listed below: Log IC50 C. elegans complex I values for each entry.
# tested_on: C. elegans (N2) complex I (NADH:ubiquinone oxidoreductase) (Caenorhabditis elegans, UniProt P24887+Q93873+Q94360)
# Sequence (Q94360 17-199): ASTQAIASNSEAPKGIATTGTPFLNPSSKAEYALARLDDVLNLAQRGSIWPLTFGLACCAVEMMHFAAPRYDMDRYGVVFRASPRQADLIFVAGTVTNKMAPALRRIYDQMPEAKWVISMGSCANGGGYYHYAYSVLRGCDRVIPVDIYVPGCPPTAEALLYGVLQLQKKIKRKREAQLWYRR
# Sequence (P24887 whole entry): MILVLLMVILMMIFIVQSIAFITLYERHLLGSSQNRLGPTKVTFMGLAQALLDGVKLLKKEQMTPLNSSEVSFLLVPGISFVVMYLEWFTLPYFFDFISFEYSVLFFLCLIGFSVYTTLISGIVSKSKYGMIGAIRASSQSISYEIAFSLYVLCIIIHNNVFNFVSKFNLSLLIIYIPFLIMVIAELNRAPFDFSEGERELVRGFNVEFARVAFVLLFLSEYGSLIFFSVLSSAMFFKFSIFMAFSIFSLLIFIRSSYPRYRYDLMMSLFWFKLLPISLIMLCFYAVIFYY
# Sequence (Q93873 31-482): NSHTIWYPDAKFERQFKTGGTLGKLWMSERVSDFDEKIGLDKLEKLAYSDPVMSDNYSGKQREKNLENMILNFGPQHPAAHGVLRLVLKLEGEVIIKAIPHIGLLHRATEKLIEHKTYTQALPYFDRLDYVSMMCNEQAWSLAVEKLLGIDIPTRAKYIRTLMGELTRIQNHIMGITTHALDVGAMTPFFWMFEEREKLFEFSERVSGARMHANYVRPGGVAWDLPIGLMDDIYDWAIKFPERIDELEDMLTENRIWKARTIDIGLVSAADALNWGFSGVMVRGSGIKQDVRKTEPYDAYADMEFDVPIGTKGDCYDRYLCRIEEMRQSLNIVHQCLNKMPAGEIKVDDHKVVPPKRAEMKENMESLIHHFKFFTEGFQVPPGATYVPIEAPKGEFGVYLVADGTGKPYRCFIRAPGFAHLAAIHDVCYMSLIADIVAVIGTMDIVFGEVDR
# assay_notes: biochemical
# Assay type: biochemical
# assay_conditions: log10 of IC50 in µM; C. elegans mitochondria
API: value field is a number in µM; no unit string.

Recorded Log IC50 C. elegans complex I, per entry:
{"structure_string": "Cc1nc2ccccc2n1Cc1ccc(C(C)C)cc1", "reading_unit": "µM", "Log IC50 C. elegans complex I": -0.37}
{"structure_string": "Clc1ccccc1OCCCCn1cnc2ccccc21", "reading_unit": "µM", "Log IC50 C. elegans complex I": -0.57}

Please give the documented Log IC50 C. elegans complex I of Cc1ccc(OCCn2cnc3ccccc32)c(C)c1 0.16

Please give the documented Log IC50 C. elegans complex I of Clc1ccc(Cn2cnc3ccccc32)c(Cl)c1 -0.35

Please give the documented Log IC50 C. elegans complex I of Clc1ccc(Cn2cnc3ccccc32)cc1Cl 0.64

====

Listed below: IC50 values for each entry.
# tested_on: C. elegans (N2) complex I (NADH:ubiquinone oxidoreductase) (Caenorhabditis elegans, UniProt P24887+Q93873+Q94360)
# assay_notes: biochemical
# Type: biochemical
# assay_conditions: in vitro complex I dose response on C. elegans mitochondria; average of at least two biological replicates; fit in R (DRC); read-out: IC50 C. elegans complex I
API: value field is a number in µM; no unit string.

{"structure_string": "FC(F)(F)c1cccc(OCCCCn2cnc3ccccc32)c1", "numeric_readout": 2.06}
{"structure_string": "Cn1c(Cc2ccc(Cl)cc2)nc2ccccc21", "numeric_readout": 8.27}
{"structure_string": "CCCOc1ccc(Cn2cnc3ccccc32)cc1", "numeric_readout": 0.62}

Please give the documented IC50 of CC(C)Oc1cccc(OCCn2cnc3ccccc32)c1 6.2
